Details: 303.15 K; 10000 kPa; Liquid; Vibrating tube method
property.label: mass density (kg/m3)
Numbers only, in kg/m3.

Fill in: mass density of CCCCCCCC[n+]1cccc(C)c1.F[B-](F)(F)F [N-octyl-3-methylpyridinium tetrafluoroborate] is ___
1097.84

Fill in: mass density of CCCC[n+]1cccc(C)c1.N#C[N-]C#N [1-butyl-3-methylpyridinium dicyanamide] is ___
1050.18

Fill in: mass density of CCCC[n+]1ccccc1.F[B-](F)(F)F [1-butylpyridinium tetrafluoroborate] is ___
1215.59

Fill in: mass density of `CCC[n+]1ccccc1Oc1ccc(Cl)c[n+]1CCOS(=O)(=O)[O-].F[B-](F)(F)F` is ___
1254.17

Continuing:
Fill in: mass density of CCCC[n+]1ccccc1.O=S(=O)([O-])C(F)(F)F [1-butylpyridinium trifluoromethanesulfonate] is ___
1317.44

Values were extracted from the NIST ThermoML archive (doi:10.1016/j.fluid.2011.12.029).
